Molecular target: T1, human FOLR1 protein, His Tag (ACRO FO1-H52H1) (human, UniProt P15328 25-233)
T1 construct: Bought protein coated on ELISA plates; not shown: His tag
T1 sequence (P15328 25-233 limits assumed): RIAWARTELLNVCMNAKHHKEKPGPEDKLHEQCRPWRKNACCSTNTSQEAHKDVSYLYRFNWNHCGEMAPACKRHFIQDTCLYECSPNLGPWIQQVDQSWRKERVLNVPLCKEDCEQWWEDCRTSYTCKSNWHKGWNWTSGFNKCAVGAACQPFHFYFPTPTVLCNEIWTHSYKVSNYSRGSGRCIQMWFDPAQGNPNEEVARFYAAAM
Assay: ratio of OD450 on hFOLR1 to OD450 on anti-human IgG Fc
recorded metric: Target binding/IgG level

* F40 (antibody, V domains shown, Tested as full-length IgG with an IgG1 Fc from HEK293, as supernatant or purified; also called clone F40; anti-FOLR1 antibody F40) VH: EVQLLESGGGVVQPGRSLRLSCAASGFTFSSYAMHWVRQAPGKGLEWVAVISYDGSNKYYADSVKGRFIISRDNSKNTVYLQMNSLRAEDTAVYYCARPTYVFTYTGSSFDYWGQGTQVTVSS VL: DIQVTQSPSSLSASLGDTVSITCRASRGLTDSVAWYQQKPGQAPKLLIYAASTLQSGVPSRFGGSGSGSYFTLTITSLQPEDVATYYCQNYKSAPWTFGQGTKVEIK | 1.02
* F131 (antibody, V domains shown, also called clone F131; F131 mAb) VH: EVQLLESGGGVVQPGRSLRLSCAASGFTFSSYGMHWVRQAPGKGLEWVAVISYDGSNKYYADSVKGRFTISRANSKNTLYLQMNSLRAEDTAVYYCARPRAYYGAYGSSFDYWGQGTQVTVSS VL: EIVMTQSPSSVSASVGDRVAITCRASQGISSWLAWYQQKPGKAPKLLIYAASSLQSGVPSRFSGSGSGTDFTLTISSLQPEDFATYYCQQSYSTPLTFGGGTKVDIK | 1.02
* F123 (antibody, V domains shown, Tested as full-length IgG with an IgG1 Fc from HEK293, as supernatant or purified; also called clone F123; anti-FOLR1 antibody F123) VH: EVQLLESGGGVVQPERSLRLSCAASGFTFSSYGMHWVRQAPGKGLEWVAVISYDGSNKYYADSVKGRFTISRANSKNTLYLQMNSLRAEDTAVYYCARPRAYYGAYGSSFDYWGQGTQVTVSS VL: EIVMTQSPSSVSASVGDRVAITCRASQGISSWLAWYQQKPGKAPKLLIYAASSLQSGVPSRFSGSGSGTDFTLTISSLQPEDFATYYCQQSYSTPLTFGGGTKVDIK | 1.06
* F138 (antibody, V domains shown, Tested as full-length IgG with an IgG1 Fc, HEK293 supernatant; also called clone F138; anti-FOLR1 antibody F138) VH: EVQLLESGGGVVQPGRSLRLSCAASGFTFSSYGMHWVRQAPGKGLEWVAVISYDGSNKYYADSVKGRFTISTHNSKNTLYLQMNSLRAEDTAVYYCARPRAYYGAYGSSFDYWGQGTQVTVSS VL: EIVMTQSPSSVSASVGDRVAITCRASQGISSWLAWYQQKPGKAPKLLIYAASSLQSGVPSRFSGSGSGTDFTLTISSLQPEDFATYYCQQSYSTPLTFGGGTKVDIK | 1.2
* F100 (antibody, V domains shown, Tested as full-length IgG with an IgG1 Fc from HEK293, as supernatant or purified; also called clone F100; anti-FOLR1 antibody F100) VH: EVQLLESGGGVVQPGRSLRLSCAASGFTFSSYGMHWVRQAPGKGLEWVAVISYDGSNKYYADSVKGRFTISRPNSKNTLYLQMNSLRAEDTAVYYCARPRAYYGAYGSSFDYWGQGTQVTVSS VL: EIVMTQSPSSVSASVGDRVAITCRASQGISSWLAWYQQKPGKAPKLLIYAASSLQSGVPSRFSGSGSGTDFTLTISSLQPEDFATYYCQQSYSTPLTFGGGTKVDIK | 1.48
